- protocol_notes: Human liver microsome stability
- Type: in vitro ADME
- test_conditions: apparent intrinsic clearance, human liver microsomes; no unit in table (μL/min/pmol, μL/min/mg or μL/min/Mcell)
assay_readout: microsomal CLint at 100 nM (µL/min/mg)
Only the number, expressed in µL/min/mg, is required.

# example entries with known answers
INSERT INTO assay_data (molecule, measurement_units, numeric_readout) VALUES
  ('CN1CCC=C(c2nsnc2OCCCCCC(F)(F)F)C1 [Example 1]', 'µL/min/mg', 447),
  ('CN1CCC=C(c2nsnc2OCCCCCC(F)F)C1 [Example 6]', 'µL/min/mg', 413),
  ('CN1CCC=C(c2nsnc2OCCCCCCF)C1 [Example 7]', 'µL/min/mg', 553);

The measured microsomal CLint at 100 nM associated with CCCCC(F)(F)COc1nsnc1C1=CCCN(C)C1 [Example 11] reads 2000

The measured microsomal CLint at 100 nM associated with CCCC(F)(F)CCOc1nsnc1C1=CCCN(C)C1 [Example 10] reads 701

The measured microsomal CLint at 100 nM associated with CCC(F)(F)CCCOc1nsnc1C1=CCCN(C)C1 [Example 9] reads 576

The measured microsomal CLint at 100 nM associated with CN1CCC=C(c2nsnc2OCCCCC(C)(F)F)C1 [Example 8] reads 711
